system: 293 cells; conditions: read-out: LC50 (concentration required to produce 50 percent lethality); 293 cells, 24 h, MTT assay
parameter: CC50

Notebook entry, 293 cells assay: CC50 of CC1=C2C(=CC(C)(C)[C@@H]2O)C(=O)[C@](C)(O)C12CC2 [Illudin M] = ?
~1000 nM
